- system-under-test: thromboxane synthetase enzyme (Rattus norvegicus, UniProt P49430)
- Construct: The platelets were isolated by centrifuging the PRP for 10 minutes; endogenous in cells; host or cells: washed platelets from arterial blood of Okamoto-Aoki spontaneously hypertensive rats (SHR; animals from Taconic Farms, Germantown, N.Y.)
- Sequence (P49430 whole entry): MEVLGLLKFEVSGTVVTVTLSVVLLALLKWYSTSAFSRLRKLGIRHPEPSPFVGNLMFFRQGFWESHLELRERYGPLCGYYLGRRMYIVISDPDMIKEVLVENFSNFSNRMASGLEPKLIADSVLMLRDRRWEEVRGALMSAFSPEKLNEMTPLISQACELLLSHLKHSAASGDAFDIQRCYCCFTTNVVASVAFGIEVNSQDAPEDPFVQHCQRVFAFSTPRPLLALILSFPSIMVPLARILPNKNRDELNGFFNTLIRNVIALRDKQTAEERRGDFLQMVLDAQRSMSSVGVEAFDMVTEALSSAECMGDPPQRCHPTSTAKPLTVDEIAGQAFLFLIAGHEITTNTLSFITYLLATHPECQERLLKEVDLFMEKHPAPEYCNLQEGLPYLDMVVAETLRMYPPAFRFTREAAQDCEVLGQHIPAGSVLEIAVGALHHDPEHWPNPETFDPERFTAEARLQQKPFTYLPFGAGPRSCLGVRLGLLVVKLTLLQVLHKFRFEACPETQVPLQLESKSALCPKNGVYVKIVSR
- run-description: Inhibition of thromboxane formation (TXB2 RIA) in washed platelets of spontaneously hypertensive rats
- Format: cell-based, Okamoto-Aoki spontaneously hypertensive rats (SHR)
- measurement-setup: SHR platelets, 10 minutes at 37° C.; drug concentration not given
assay-readout: % Inhibition (of TXB2 formation) (%)
Record the value in %, omitting the unit from your answer.

# example entries with known answers
>  <chemical-smiles>
O=C(O)c1ccc(Cl)cc1C(=O)NCCCCc1cccnc1

>  <assay-readout>
% Inhibition (of TXB2 formation)

>  <numeric-value>
100

$$$$
>  <chemical-smiles>
Cl.Cl.Nc1c(C(=O)NCCCc2cccnc2)cccc1C(F)(F)F

>  <assay-readout>
% Inhibition (of TXB2 formation)

>  <numeric-value>
98

$$$$
>  <chemical-smiles>
Cc1ccc(N)c(C(=O)NCCCCc2cccnc2)c1.Cl.Cl

>  <assay-readout>
% Inhibition (of TXB2 formation)

>  <numeric-value>
100

$$$$
>  <chemical-smiles>
CNc1ccc(Cl)cc1C(=O)NCCCCc1cccnc1.Cl.Cl

>  <assay-readout>
% Inhibition (of TXB2 formation)

>  <numeric-value>
99

$$$$

# ---- query compound ----
Query block: So what does the record say about % Inhibition (of TXB2 formation) for Cl.Cl.Nc1ccccc1C(=O)NCCCCc1cccnc1 ?
Result block: 97

---

- system-under-test: thromboxane synthetase enzyme (Rattus norvegicus)
- Construct: The platelets were isolated by centrifuging the PRP for 10 minutes; endogenous in cells; host or cells: washed platelets from arterial blood of Okamoto-Aoki spontaneously hypertensive rats (SHR; animals from Taconic Farms, Germantown, N.Y.)
- run-description: Inhibition of thromboxane formation (TXB2 RIA) in washed platelets of spontaneously hypertensive rats
- Type: cell-based, Okamoto-Aoki spontaneously hypertensive rats (SHR)
- measurement-setup: SHR platelets, 10 minutes at 37° C.; drug concentration not given
Where a name gives a salt, the structure may show the parent alone.
assay-readout: % Inhibition (of TXB2 formation) (%)
Record the value in %, omitting the unit from your answer.

>  <compound>
Nc1cc(Cl)ccc1C(=O)NCCCc1cccnc1 [Example 9]

>  <% Inhibition (of TXB2 formation) / %>
95

$$$$
>  <compound>
O=C(O)c1ccccc1C(=O)NCCCCc1cccnc1 [Example 13]

>  <% Inhibition (of TXB2 formation) / %>
92

$$$$

Query block: Param readout = % Inhibition (of TXB2 formation); param system = thromboxane synthetase enzyme (Rattus norvegicus); param query = Nc1ccc(Cl)cc1C(=O)NCCCc1cccnc1 [dihydrochloride] ; response: value
Result block: 98
